- target_under_test: T1, CD16A F158 (UniProt P08637 17-208, limits assumed)
- T1 construct: Only the name and allotype are printed; also called FcγRIIIA
- assay_notes: assay not named in Table 4
metric_name: binding relative to wild-type Fc
Numbers only.

Dear colleague, could you please provide binding relative to wild-type Fc for the binders listed below?
1. Fc variant F243L R292P V305I (other, UniProt P01857-1 104-330, looked up, domain: Fc; also called Mutant 13*) DKTHTCPPCPAPELLGGPSVFLLPPKPKDTLMISRTPEVTCVVVDVSHEDPEVKFNWYVDGVEVHNAKTKPPEEQYNSTYRVVSILTVLHQDWLNGKEYKCKVSNKALPAPIEKTISKAKGQPREPQVYTLPPSRDELTKNQVSLTCLVKGFYPSDIAVEWESNGQPENNYKTTPPVLDSDGSFFLYSKLTVDKSRWQQGNVFSCSVMHEALHNHYTQKSLSLSPGK
2. Fc variant F243L R292P V305I P396L (other, UniProt P01857-1 104-330, looked up, domain: Fc; also called Mutant 17) DKTHTCPPCPAPELLGGPSVFLLPPKPKDTLMISRTPEVTCVVVDVSHEDPEVKFNWYVDGVEVHNAKTKPPEEQYNSTYRVVSILTVLHQDWLNGKEYKCKVSNKALPAPIEKTISKAKGQPREPQVYTLPPSRDELTKNQVSLTCLVKGFYPSDIAVEWESNGQPENNYKTTPLVLDSDGSFFLYSKLTVDKSRWQQGNVFSCSVMHEALHNHYTQKSLSLSPGK
3. Fc variant F243I R292P Y300L V305I P396L (other, UniProt P01857-1 104-330, looked up, domain: Fc; Written as printed (F243I); may be a misprint of F243L) DKTHTCPPCPAPELLGGPSVFLIPPKPKDTLMISRTPEVTCVVVDVSHEDPEVKFNWYVDGVEVHNAKTKPPEEQYNSTLRVVSILTVLHQDWLNGKEYKCKVSNKALPAPIEKTISKAKGQPREPQVYTLPPSRDELTKNQVSLTCLVKGFYPSDIAVEWESNGQPENNYKTTPLVLDSDGSFFLYSKLTVDKSRWQQGNVFSCSVMHEALHNHYTQKSLSLSPGK

Result block:
[1.43, 2.53, 3.12]

Every entry's value here was drawn from patent US20180051079A1.
